Listing: IC50 of selected molecules
Measurement notes: Antiaggregatory activity in human platelets assessed as inhibition of collagen-induced platelet aggregation by aggregometry
Format: functional, cell-based
Where a SMILES comes first, the peptide text is derived from it. The star is where a group is joined. Fmoc = O=C(OCC1c2ccccc2-c2ccccc21)*
Give the quantity in µg/mL, number only.

{"columns": ["Molecule", "Output unit", "IC50"],
 "data": [
  ["Oc1cc(O)c2c(c1)O[C@H](c1ccc(O)c(O)c1)[C@H](O)C2 [(-)-EPICATECHIN]", "µg/mL", 22.2],
  ["Oc1cc(O)c2c(c1)O[C@H](c1ccc(O)c(O)c1)[C@@H](O)C2", "µg/mL", 27.6],
  ["C[C@H]1O[C@H](Oc2cc(O)c3c(=O)c(O)c(-c4ccc(O)cc4)oc3c2)[C@@H](O)[C@@H](O)[C@@H]1O", "µg/mL", 34.8],
  ["C[C@H]1[C@H](C)CC[C@]2(C(=O)O)CC[C@]3(C)C(=CC[C@@H]4[C@@]5(C)CC[C@H](O)C(C)(C)[C@@H]5CC[C@]43C)[C@H]12", "µg/mL", 34.5],
  ["O=c1cc(-c2ccc(O)c(O)c2)oc2cc(O)cc(O)c12", "µg/mL", 2.56],
  ["CC(=O)Oc1ccccc1C(=O)O", "µg/mL", 13.6],
  ["C=C(C)[C@@H]1CC[C@]2(C(=O)O)CC[C@]3(C)[C@H](CC[C@@H]4[C@@]5(C)CCC(=O)C(C)(C)[C@@H]5CC[C@]43C)[C@@H]12", "µg/mL", 44.7],
  ["O=c1c(O)c(-c2ccc(O)cc2)oc2cc(O)cc(O)c12", "µg/mL", 3.55]
]}

Give the measured IC50 of COc1cc2ccc(=O)oc2cc1O .
41.7

Param item: COC(=O)[C@H](Cc1ccccc1)NC(=O)[C@@H](NC(=O)OCC1c2ccccc2-c2ccccc21)C(C)C [IXORAPEPTIDE I] (Fmoc-Val-Phe-OMe)
29.5

###

Measurement notes: Antiinflammatory activity in human neutrophils assessed as inhibition of FMLP/CB-induced elastase release at 10 ug/ml
Format: functional
Run parameters: Neutrophil
Reported metric: inhibition at 10 µg/mL (%)
Just the number please, in %, no unit attached.

Illustrative cases are given below, each with its answer.
{"columns": ["Molecule", "Reported metric", "Assay value"],
 "data": [
  ["C[C@@H]1O[C@@H](Oc2cc(O)c3c(=O)c(O[C@@H]4O[C@@H](C)[C@H](O)[C@@H](O)[C@H]4O)c(-c4ccc(O)cc4)oc3c2)[C@H](O)[C@H](O)[C@H]1O", "inhibition at 10 µg/mL", 12.5],
  ["CC(=O)OC[C@]1(C)CCC[C@]2(C)[C@@H]1CC[C@]13C[C@H](CC[C@H]12)[C@@H](C(=O)O)C3", "inhibition at 10 µg/mL", 44.7],
  ["CCCCCCCCCCCCCCCCCCCC(=O)OCC(O)CO (centres undefined)", "inhibition at 10 µg/mL", 41.8]
]}

For the molecule C[C@@]1(CO)CCC[C@]2(C)[C@@H]1CC[C@]13C[C@H](CC[C@H]12)[C@@H](C(=O)O)C3 , what inhibition at 10 µg/mL is on record?
15.6

###

System: MDA-MB-231
Measurement notes: Cytotoxicity against human MDA-MB-231 cells by MTT assay
Assay type: functional, cell-based
Where a SMILES comes first, the peptide text is derived from it. The star is where a group is joined. Fmoc = O=C(OCC1c2ccccc2-c2ccccc21)*
Each entry below carries its recorded IC50.

Recorded results for 5 compounds are shown here.
{"columns": ["Compound", "Target or system", "IC50"],
 "data": [
  ["COC(=O)[C@H](Cc1ccccc1)NC(=O)[C@@H](NC(=O)OCC1c2ccccc2-c2ccccc21)C(C)C [IXORAPEPTIDE I] (Fmoc-Val-Phe-OMe)", "MDA-MB-231", "> 20 mg/L"],
  ["C=C(C)[C@@H]1CC[C@]2(C(=O)O)CC[C@]3(C)[C@H](CC[C@@H]4[C@@]5(C)CCC(=O)C(C)(C)[C@@H]5CC[C@]43C)[C@@H]12 [BETUNOLIC ACID]", "MDA-MB-231", "> 20 mg/L"],
  ["COc1cccc2c1C(=O)c1c(O)c3c(c(O)c1C2=O)C[C@@](O)(C(=O)CO)C[C@@H]3O[C@H]1C[C@H](N)[C@H](O)[C@H](C)O1 [DOXORUBICIN]", "MDA-MB-231", "1.32 mg/L"],
  ["O=c1cc(-c2ccc(O)c(O)c2)oc2cc(O)cc(O)c12 [LUTEOLIN]", "MDA-MB-231", "9.65 mg/L"],
  ["CC1(C)CC[C@]2(C(=O)O)CC[C@]3(C)C(=CC[C@@H]4[C@@]5(C)CCC(=O)C(C)(C)[C@@H]5CC[C@]43C)[C@@H]2C1 [OLEANONIC ACID]", "MDA-MB-231", "> 20 mg/L"]
]}

I am curious: what IC50 value has been reported for O=c1c(O)c(-c2ccc(O)cc2)oc2cc(O)cc(O)c12 [KAEMPFEROL] ?
> 20 mg/L

How about C=C(C)[C@@H]1CC[C@]2(C)CC[C@]3(C)[C@H](CC[C@@H]4[C@@]5(C)CC[C@H](O)C(C)(C)[C@@H]5CC[C@]43C)[C@@H]12 [LUPEOL] ?
> 20 mg/L
